- target-entity: BrmGRX (Brucella melitensis, UniProt Q8YJA2)
- Sequence (Q8YJA2 1-92): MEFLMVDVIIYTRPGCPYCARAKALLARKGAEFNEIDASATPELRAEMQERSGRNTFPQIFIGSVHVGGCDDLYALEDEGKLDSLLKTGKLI
Examples of compounds with documented Kd follow.
Output should be the measured figure followed by the unit it is expressed in.

Before answering, review these 4 worked examples.
INSERT INTO results (smiles_data, property_measured, meas_value) VALUES
  ('Cc1cc2ncc(C(=O)O)c(C)n2n1', 'Kd', '2.28 mM'),
  ('CN1CCN(C)c2cc(CN)ccc21', 'Kd', '5.49 mM'),
  ('O=C(O)c1cc(-c2ccco2)[nH]n1', 'Kd', '0.9 mM'),
  ('Cn1nc(-c2ccco2)cc1C(=O)O', 'Kd', '5.24 mM');

Please find the next compound below.
Let me check: O=C(O)c1ccc(-n2cccn2)cc1 , system BrmGRX (Brucella melitensis, UniProt Q8YJA2), measured Kd is 5.56 mM
